# measuredOn: HLA-DR DRB1*0701 (human)
# testMethodNotes: radiolabeled-peptide inhibition, purified HLA-DR
experimentalEndpoint: pIC50
// pIC50: -log10(molar conc.)

**Q:** For the binder GHCWGPGPTQCVNCS [9019.0061] , what pIC50 is on record?
**A:** 5.17
